Where do these numbers come from? They come from patent US9890133B2.

Listed here: items and their measured EC50.
system: Rhino 63; test: Multicycle CPE reduction assay, Rhino 63; type: cell-based; conditions: incubation at 37° C. in HeLa cells

Worked examples follow.
CC(C)c1ccc2c(c1)OC1(O)c3ccccc3C(=O)C21O (stereo not drawn) [Example 10] | > 50 µM
CC(C)c1ccc2c(c1)O[C@@]1(O)c3cccc(N)c3C(=O)[C@@]21O [Example 46] | 8.5 µM

Now, please, on to the next molecule.
Recorded EC50 for CC(=O)NC12C(=O)c3ccccc3C1(O)Oc1cc(C(C)C)ccc12 (stereo not drawn) [Example 66] on Rhino 63 was > 10 µM

---

test: in vitro; conditions: human, Picorana CC50
Item-by-item account of CC50
Kindly provide the numeric value in µg/mL only, without the unit symbol.

Please review the entries below; each comes with its answer.
Cc1cccc(C(=O)NC23C(=O)c4c(N)cccc4C2(O)Oc2cc(C(C)C)ccc23)c1 (centres unmarked) | 7.43
Cc1ccnc(C(=O)NC23C(=O)c4c(N)cccc4C2(O)Oc2cc(C(C)C)ccc23)c1 (centres unmarked) | 7.36
CO/N=C1/c2ccccc2C2(O)Oc3cc(C(C)C)ccc3C12O (centres unmarked) | 8.16

GET /value?item= CC(C)c1ccc2c(c1)OC1(O)c3cccc(N)c3C(=O)C21NC(=O)c1cc2ccccc2s1 (centres unmarked) &field=CC50 returns 7.97

So, COc1ccc(CN2CCN(c3cccc4c3C(=O)C3(O)c5ccc(C(C)C)cc5OC43O)CC2)cc1 (centres unmarked) ? Its CC50 was 8.48

Recorded CC50 (molecule CC(C)c1ccc2c(c1)OC1(O)c3ccccc3C(=O)C21NC(=O)c1ccc2[nH]nnc2c1 (centres unmarked) ): 14.5

---

assay: in vitro; conditions: human
A collection of compounds and their measured CC50

A selection of reference data follows.
CC(C)c1ccc2c(c1)OC1(O)c3ccccc3C(=O)C21NC(=O)c1cccnc1 (stereo not drawn) [Example 230] | > 10 µg/mL
Cc1ccnc(C(=O)NC23C(=O)c4c(N)cccc4C2(O)Oc2cc(C(C)C)ccc23)c1 (stereo not drawn) [Example 243] | > 10 µg/mL
CC(C)c1ccc2c(c1)OC1(O)c3cccc(N)c3C(=O)C21NC(=O)C1CCCO1 (stereo not drawn) [Example 174] | > 10 µg/mL
CCOP(=O)(NC12C(=O)c3c(N)cccc3C1(O)Oc1cc(C(C)C)ccc12)OCC (stereo not drawn) [Example 169] | > 10 µg/mL
CC(C)c1ccc2c(c1)OC1(O)c3cccc(N)c3C(=O)C21NC(=O)C(F)(F)F (stereo not drawn) [Example 175] | > 10 µg/mL
CC(C)c1ccc2c(c1)OC1(O)c3cccc(N)c3C(=O)C21NC(=O)c1ccc2ccccc2c1 (stereo not drawn) [Example 171] | > 10 µg/mL
CC(C)c1ccc2c(c1)OC1(O)c3cccc(N)c3C(=O)C21NC(=O)Cn1cnnn1 (stereo not drawn) [Example 213] | > 10 µg/mL
CC(C)c1ccc2c(c1)OC1(O)c3ccccc3C(=O)C21NC(=O)c1c[nH]c2ccccc12 (stereo not drawn) [Example 209] | 8.43 µg/mL

Alright, here's another compound for you.
Sample CCc1ccc2c(c1)OC1(O)c3cccc(N)c3C(=O)C21O (stereo not drawn) [Example 50] ; CC50 observed: 49.9 µg/mL

---

assay: in vitro; details: human, Picorana CC50
Parameter Measured: CC50 (µg/mL)
I only need the number, in µg/mL, no unit after it.

CC(C)c1ccc2c(c1)OC1(O)c3ccccc3C(=O)C21O (centres unmarked) [Example 10] | 14.2
CC(C)c1ccc2c(c1)OC1(O)c3ccc(N(C)C)cc3C(=O)C21O (centres unmarked) [Example 150] | 1.32
CC(C)c1ccc2c(c1)OC1(O)c3cccc(N)c3C(=O)C21NC(=O)c1cc2ccccc2c(=O)[nH]1 (centres unmarked) [Example 286] | 4.28

The measured CC50 associated with CC(C)c1ccc2c(c1)OC1(O)c3cccc(N)c3C(=O)C21NC(=O)c1cccn2nnnc12 (centres unmarked) [Example 279] reads 7.88

So, CC(C)c1ccc2c(c1)OC1(O)c3cccc(N)c3C(=O)C21NC(=O)c1n[nH]cc1[N+](=O)[O-] (centres unmarked) [Example 242] ? Its CC50 was 8.55

Please fill in: CC50 reported for CC(C)c1ccc2c(c1)OC1(O)c3cccc(N)c3C(=O)C21NC(=O)c1ccc2ccccc2n1 (centres unmarked) [Example 263] = 7.65

---

assay: Cytotoxicity (CC50), MTS-based assay (Experimental Example 2); assay type: cell-based
Here the recorded CC50 at 3 days is given for each entry.

CC(=O)NC12C(=O)c3ccccc3C1(O)Oc1cc(C(C)C)ccc12 (stereo not drawn) | > 100 µM

The value of CC50 at 3 days measured for the compound CC(C)c1ccc2c(c1)OC1(O)c3ccccc3C(=O)C21O (stereo not drawn) turned out to be > 100 µM

The recorded CC50 at 3 days for CC(C)c1ccc2c(c1)O[C@@]1(O)c3cccc(N)c3C(=O)[C@@]21O is > 100 µM

---

experiment: in vitro; conditions: human
Below: a set of entries, each annotated with reported CC50.

Consider the following illustrative entries.
CC(C)c1ccc2c(c1)OC1(O)c3cccc(N)c3C(=O)C21NC(=O)c1ccccn1 (centres unmarked) [Example 197] | 16 µg/mL
CC(C)c1ccc2c(c1)OC1(O)c3ccccc3C(=O)C21NC(=O)c1ccc2[nH]cnc2c1 (centres unmarked) [Example 240] | > 10 µg/mL
CC(C)c1ccc2c(c1)OC1(O)c3cccc(N)c3C(=O)C21NC(=O)C1c2ccccc2Oc2ccccc21 (centres unmarked) [Example 237] | > 10 µg/mL
COc1ccc(NC(=O)NC23C(=O)c4c(N)cccc4C2(O)Oc2cc(C(C)C)ccc23)cc1 (centres unmarked) [Example 162] | > 10 µg/mL
CC(C)c1ccc2c(c1)OC1(O)c3ccccc3C(=O)C21NC(=O)c1ccccn1 (centres unmarked) [Example 218] | > 10 µg/mL

CC50 in this record for Cc1ccc(C(=O)NC23C(=O)c4c(N)cccc4C2(O)Oc2cc(C(C)C)ccc23)s1 (centres unmarked) [Example 216] : 9.69 µg/mL

Input Cc1cc(C)cc(C(=O)NC23C(=O)c4c(N)cccc4C2(O)Oc2cc(C(C)C)ccc23)c1 (centres unmarked) [Example 191] . Output CC50: > 10 µg/mL

In plain terms, CC(C)c1ccc2c(c1)OC1(O)c3ccccc3C(=O)C21NC(=O)Cc1nnn[nH]1 (centres unmarked) [Example 220] has a documented CC50 of > 10 µg/mL

---

Entries and their CC50
assay: in vitro; conditions: human, Picorana CC50

CC(=O)Nc1c(N)ccc2c1C(=O)C1(O)c3ccc(C(C)C)cc3OC21O (centres unmarked) [Example 59] | > 50 µg/mL

From here, focus on the item given below.
// field: CC50; key: CCCCC(=O)NC12C(=O)c3c(N)cccc3C1(O)Oc1cc(C(C)C)ccc12 (centres unmarked) [Example 78] ; value = 47.7 µg/mL

---

Items are presented alongside their recorded CC50.
assay: in vitro; settings: human

See these solved cases before continuing.
CC(C)c1ccc2c(c1)OC1(O)c3cccc(N)c3C(=O)C21NC(=O)c1c2ccccc2nc2ccccc12 (centres unmarked) | > 10 µg/mL
CCCCc1cn(C23C(=O)c4c(N)cccc4C2(O)Oc2cc(C(C)C)ccc23)nn1 (centres unmarked) | 16.2 µg/mL
CC(C)c1ccc2c(c1)OC1(O)c3cccc(N)c3C(=O)C21NC(=O)[C@@H]1CSC(=O)N1 (some centres unmarked) | > 10 µg/mL
CC(C)c1ccc2c(c1)OC1(O)c3cccc(N)c3C(=O)C21NC(=O)c1cccc2cccnc12 (centres unmarked) | 3.24 µg/mL
CC(C)c1ccc2c(c1)OC1(O)c3ccccc3/C(=N\N)C21O (centres unmarked) | 10.5 µg/mL
CC(C)c1ccc2c(c1)O[C@@]1(O)c3cccc(O)c3C(=O)[C@@]21O | 33.2 µg/mL
Cc1onc(-c2c(F)cccc2Cl)c1C(=O)NC12C(=O)c3c(N)cccc3C1(O)Oc1cc(C(C)C)ccc12 (centres unmarked) | > 10 µg/mL

Let us examine a further case.
# CC50 of Cc1ccnc2nc(C(=O)NC34C(=O)c5c(N)cccc5C3(O)Oc3cc(C(C)C)ccc34)nn12 (centres unmarked) = > 10 µg/mL

---

assay: in vitro; settings: human, Picorana CC50
Parameter Measured: CC50

Answered examples (8):
CC(=O)Nc1cccc2c1C(=O)C1(NC(C)=O)c3ccc(C(C)C)cc3OC21O (stereo not drawn) [Example 57] | 46.7 µg/mL
CC(C)c1ccc2c(c1)OC1(O)c3cccc(N)c3C(=O)C21NC(=O)Cc1ccc(-c2ccccc2)cc1 (stereo not drawn) [Example 182] | 6.42 µg/mL
CC(C)OC(=O)Nc1cccc2c1C(=O)C1(O)c3ccc(C(C)C)cc3OC21O (stereo not drawn) [Example 29] | 7.49 µg/mL
COC(=O)N[C@@]12C(=O)c3ccccc3[C@]1(O)Oc1cc(C(C)C)ccc12 [Example 84] | > 50 µg/mL
CC(=O)NC12C(=O)c3ccccc3C1(OC(=O)Oc1ccccc1)Oc1cc(C(C)C)ccc12 (stereo not drawn) [Example 121] | > 50 µg/mL
COc1ccccc1C(=O)NC12C(=O)c3c(N)cccc3C1(O)Oc1cc(C(C)C)ccc12 (stereo not drawn) [Example 183] | 8.54 µg/mL
CC(C)c1ccc2c(c1)OC1(O)c3ccccc3C(=O)C21NC(=O)c1ccc([N+](=O)[O-])s1 (stereo not drawn) [Example 223] | 7.46 µg/mL
CC(C)c1ccc2c(c1)OC1(OC(=S)Nc3ccccc3)c3ccccc3C(=O)C21N=[N+]=[N-] (stereo not drawn) [Example 122] | 12 µg/mL

Value of measured CC50 for the entry CCCCCC(=O)NC12C(=O)c3ccccc3C1(OC(=O)CCCCC)Oc1cc(C(C)C)ccc12 (stereo not drawn) [Example 91] : > 50 µg/mL

Sure, the documented CC50 for CC(C)c1ccc2c(c1)OC1(O)c3c(N)ccc(N)c3C(=O)C21O (stereo not drawn) [Example 61] is > 50 µg/mL

Lab book: CC50 of CC(C)c1cc(C(C)C)c2c(c1)C1(N)C(=O)c3ccccc3C1(O)O2 (stereo not drawn) [Example 68] noted as 8.94 µg/mL
